The origin of these recorded values is PubChem BioAssay AID248.

# Tested on: L1210 leukemia ip in BDF1 mice, survival T/C
# assayNotes: NCI In Vivo Anticancer Drug Screen. Data for tumor model L1210 Leukemia (intraperitoneal) in B6D2F1 (BDF1) mice
# particulars: endpoint: mean survival time; dose: 25.0 mg/kg/injection; schedule: Q01DX009 (ip); vehicle: Klucel (hydroxypropylcellulose) (HPC); higher = longer survival
Inconclusive results and toxic doses are left out.
Measured T/C, listed per entry for reference.

Look over these answered cases.
{"columns": ["compound", "T/C"],
 "data": [
  ["CC(Cc1ccccc1)NC(=O)NCCCl (stereo not drawn)", "101 % of control"],
  ["CC(C)C1=CC23CCC4C(C)(C(=O)O)CCCC4(C)C2CC1C1C(=O)OC(=O)C13 (stereo not drawn)", "106 % of control"],
  ["Cc1cc2nc(N)sc2cc1C", "101 % of control"],
  ["CNC(c1ccccc1)C(O)c1ccccc1 (stereo not drawn)", "106 % of control"],
  ["Cc1ccccc1NC(=O)CI", "103 % of control"]
]}

## Input Requested field: T/C. Item: CCN(CC)CCCC(C)Nc1cc(C)nc(/N=C(\N)Nc2ccc(Cl)c(Cl)c2)n1 (stereo not drawn)
## Output 96 % of control

## Input // same read-out, input: CC1=CCC(C(C)C)C=C1 (stereo not drawn)
## Output 101 % of control

## Input // same read-out, input: C=C1CC(c2ccc(S(=O)(=O)N3CCOCC3)cc2)OC1=O (stereo not drawn)
## Output 93 % of control

---

# System: L1210 leukemia ip in BDF1 mice, survival T/C
# assayNotes: NCI In Vivo Anticancer Drug Screen. Data for tumor model L1210 Leukemia (intraperitoneal) in B6D2F1 (BDF1) mice
# particulars: endpoint: mean survival time; dose: 12.5 mg/kg/injection; schedule: Q04DX003 (ip); vehicle: saline; higher = longer survival
Inconclusive results and toxic doses are left out.
testReadout: T/C

{"columns": ["compound", "testTarget", "T/C"],
 "data": [
  ["O=C(/C=N/O)/C=N/O (tested in a mixture with another compound)", "L1210 leukemia ip in BDF1 mice, survival T/C", "96 % of control"],
  ["C=C(Br)CN(C)C(C)=O", "L1210 leukemia ip in BDF1 mice, survival T/C", "106 % of control"],
  ["CCCC[N+](C)(CCCC)CC(O)c1cc(-c2ccc(Cl)cc2)nc2c(Cl)cc(Cl)cc12 (stereo unspecified)", "L1210 leukemia ip in BDF1 mice, survival T/C", "102 % of control"],
  ["CC(=O)c1ccc2c(c1)N(CCCN1CCN(CCO)CC1)c1ccccc1S2", "L1210 leukemia ip in BDF1 mice, survival T/C", "115 % of control"],
  ["C[N+](C)(C)c1ccc(/C=N\\O)cc1", "L1210 leukemia ip in BDF1 mice, survival T/C", "102 % of control"]
]}

Here is another compound to look at.
## Input Recorded T/C for CCCCCNC(C)C(=O)c1ccccc1 (stereo unspecified) with L1210 leukemia ip in BDF1 mice, survival T/C, please?
## Output 87 % of control

---

# Test system: L1210 leukemia ip in BDF1 mice, survival T/C
# assayNotes: NCI In Vivo Anticancer Drug Screen. Data for tumor model L1210 Leukemia (intraperitoneal) in B6D2F1 (BDF1) mice
# particulars: endpoint: mean survival time; dose: 400.0 mg/kg/injection; schedule: Q01DX009 (ip); vehicle: saline; higher = longer survival
Toxic doses and inconclusive results are not listed.
Measured T/C, listed per entry for reference.

Look over these answered cases.
{"columns": ["molecule", "T/C"],
 "data": [
  ["NC(=O)C(O)C(Br)(Br)Br (configuration not stated)", "90 % of control"],
  ["C#CC1(OCC2CO2)CCCCC1 (configuration not stated)", "94 % of control"],
  ["O=S1(=O)CCCC1", "96 % of control"],
  ["CC(=O)OC1CCCC2C(=O)c3c(c(O)c4ccccc4c3O)C(=O)C12 (configuration not stated)", "101 % of control"],
  ["COc1ccc2c(c1)CN(S(=O)(=O)c1ccc(C)cc1)CC/C2=N\\O", "104 % of control"]
]}

## Input Requested field: T/C. Item: NC(N)=NCCCC(N)C(=O)O (configuration not stated)
## Output 97 % of control

## Input // same read-out, input: O=C(O)C1=CC(O)C(O)C(O)C1 (configuration not stated)
## Output 106 % of control
